Cited source for all entries: paper PMC10223552

Assign Kb to each entry below.
Target: gpH3R (Cavia porcellus, UniProt Q9JI35)
Construct: from tissue; host or cells: isolated distal ileum of male guinea pigs
Sequence (Q9JI35 whole entry): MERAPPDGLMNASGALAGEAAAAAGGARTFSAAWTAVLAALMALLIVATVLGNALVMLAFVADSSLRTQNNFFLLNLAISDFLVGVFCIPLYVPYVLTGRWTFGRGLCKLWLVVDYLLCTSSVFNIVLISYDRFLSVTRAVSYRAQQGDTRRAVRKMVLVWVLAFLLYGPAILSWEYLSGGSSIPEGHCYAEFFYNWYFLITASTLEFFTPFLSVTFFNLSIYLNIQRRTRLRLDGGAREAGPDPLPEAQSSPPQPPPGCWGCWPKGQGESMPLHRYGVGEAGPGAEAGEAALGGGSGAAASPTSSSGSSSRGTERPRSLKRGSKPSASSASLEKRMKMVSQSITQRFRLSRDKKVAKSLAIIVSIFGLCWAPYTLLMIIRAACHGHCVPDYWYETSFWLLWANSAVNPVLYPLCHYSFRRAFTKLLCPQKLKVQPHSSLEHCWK
Test: Ex vivo assay for histamine H3R antagonists on electrically stimulated guinea pig ileum
// unit must come after the numeric part

For reference, reported Kb for N=C(N)N(CCCc1ccc(Cl)cc1)CCCN1CCCCC1 [ADS10292] stands at 45.7 nM

Input N=C(NCCCCc1ccc(Cl)cc1)NCCCN1CCCCC1 [ADS10306] . Output Kb: 47.9 nM

Per the record, N=C(N)N(CCCCN1CCN(CCCOCCCc2ccccc2)CC1)Cc1ccccc1 [ADS10349] has Kb of 45.7 nM

The compound listed as N=C(N)N(CCCCN1CCN(CCCOCCCc2ccc(Cl)cc2)CC1)Cc1ccccc1 [ADS10278] shows Kb equal to 14.8 nM

Per the records, this compound ( N=C(NCCCCN1CCCCC1)NCCCc1ccc(Cl)cc1 [ADS10301] ) has Kb equal to 22.9 nM

// sample N=C(N)N(CCCCc1ccc(Cl)cc1)CCCN1CCCCC1 [ADS10312] , its Kb was 93.3 nM

The recorded Kb for entry N=C(N)N(CCCCN1CCCCC1)CCCc1ccc(Cl)cc1 [ADS10300] equals 47.9 nM

Noted for N=C(N)N(CCCCN1CCN(CCCCCCCOc2ccc(Cl)cc2)CC1)Cc1ccc(C(F)(F)F)cc1 [ADS10376] : its Kb reads 7.08 nM

N=C(N)N(CCCCN1CCN(CCCCCCCOc2ccc(Cl)cc2)CC1)Cc1ccccc1 [ADS10377] has a reported Kb of 15.1 nM

Measured Kb of Cl.Cl.N=C(NCCCCc1ccc(Cl)cc1)NCCCCN1CCCCC1 [ADS10310] : 19.1 nM

Documented Kb of N=C(N)N(CCCCN1CCN(CCCOCCCc2ccc(Cl)cc2)CC1)Cc1ccc(C(F)(F)F)cc1 [ADS10279] : 5.25 nM

* * *

Molecular target: gpH1R (Cavia porcellus, UniProt P31389)
Construct: from tissue; host or cells: isolated distal ileum of male guinea pigs
Sequence (P31389 whole entry): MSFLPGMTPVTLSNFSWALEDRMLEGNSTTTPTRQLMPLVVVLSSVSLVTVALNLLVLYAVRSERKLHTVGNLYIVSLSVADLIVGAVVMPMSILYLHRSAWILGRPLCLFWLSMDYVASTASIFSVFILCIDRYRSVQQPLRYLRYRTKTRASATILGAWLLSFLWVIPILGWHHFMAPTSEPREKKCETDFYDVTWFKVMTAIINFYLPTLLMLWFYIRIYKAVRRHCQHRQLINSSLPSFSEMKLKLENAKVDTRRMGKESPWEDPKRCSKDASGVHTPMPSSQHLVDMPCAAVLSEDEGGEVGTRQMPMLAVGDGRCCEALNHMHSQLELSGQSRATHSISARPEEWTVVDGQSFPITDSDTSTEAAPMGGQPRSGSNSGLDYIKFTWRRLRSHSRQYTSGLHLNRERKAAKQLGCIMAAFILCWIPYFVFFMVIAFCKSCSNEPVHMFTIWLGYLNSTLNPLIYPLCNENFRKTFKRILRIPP
Experiment: Ex vivo assay for histamine H1R antagonists on guinea pig ileum stimulated by histamine (+atropine)
Details: gpH1R +Atropine pA2 ± sem, isolated guinea pig ileum, vs histamine, 0.05 µM atropine
measure_name: Kb (nM)
Use nM as the unit, but write only the number.

Kb for N=C(N)N(CCCCN1CCN(CCCCCCCOc2ccc(Cl)cc2)CC1)Cc1ccc(C(F)(F)F)cc1 [ADS10376] is 214

Summary for this compound, N=C(N)N(CCCCN1CCN(CCCOCCCc2ccccc2)CC1)Cc1ccc(C(F)(F)F)cc1 [ADS10350] : Kb is 269

Entry Cl.Cl.N=C(NCCCCc1ccc(Cl)cc1)NCCCCN1CCCCC1 [ADS10310] ; Kb = 339

Given item N=C(N)N(CCCCN1CCN(CCCOCCCc2ccccc2)CC1)Cc1ccccc1 [ADS10349] , the value recorded as its Kb is 347

* * *

Biological target: gpH1R (Cavia porcellus, UniProt P31389)
Construct: from tissue; host or cells: isolated distal ileum of male guinea pigs
Assay: Ex vivo assay for histamine H1R antagonists on guinea pig ileum stimulated by histamine (+atropine)
Conditions: gpH1R +Atropine pA2 ± sem, isolated guinea pig ileum, vs histamine, 0.05 µM atropine
measure_name: Kb (nM)
# number only, unit nM dropped from output

So, N=C(N)N(CCCCN1CCN(CCCOCCCc2ccc(Cl)cc2)CC1)Cc1ccc(C(F)(F)F)cc1 [ADS10279] ? Its Kb was 135

Given item N=C(NCCCCc1ccc(Cl)cc1)NCCCN1CCCCC1 [ADS10306] , the value recorded as its Kb is 67.6

Form field Kb, entry N=C(N)N(CCCCN1CCCCC1)CCCc1ccc(Cl)cc1 [ADS10300] : 2510

Reported Kb for N=C(N)N(CCCCc1ccc(Cl)cc1)CCCN1CCCCC1 [ADS10312] was 1380

Kb for N=C(N)N(CCCCN1CCN(CCCCCCCOc2ccc(Cl)cc2)CC1)Cc1ccccc1 [ADS10377] is 123

* * *

Target: eqBuChE (Equus caballus)
Sequence (P81908 whole entry): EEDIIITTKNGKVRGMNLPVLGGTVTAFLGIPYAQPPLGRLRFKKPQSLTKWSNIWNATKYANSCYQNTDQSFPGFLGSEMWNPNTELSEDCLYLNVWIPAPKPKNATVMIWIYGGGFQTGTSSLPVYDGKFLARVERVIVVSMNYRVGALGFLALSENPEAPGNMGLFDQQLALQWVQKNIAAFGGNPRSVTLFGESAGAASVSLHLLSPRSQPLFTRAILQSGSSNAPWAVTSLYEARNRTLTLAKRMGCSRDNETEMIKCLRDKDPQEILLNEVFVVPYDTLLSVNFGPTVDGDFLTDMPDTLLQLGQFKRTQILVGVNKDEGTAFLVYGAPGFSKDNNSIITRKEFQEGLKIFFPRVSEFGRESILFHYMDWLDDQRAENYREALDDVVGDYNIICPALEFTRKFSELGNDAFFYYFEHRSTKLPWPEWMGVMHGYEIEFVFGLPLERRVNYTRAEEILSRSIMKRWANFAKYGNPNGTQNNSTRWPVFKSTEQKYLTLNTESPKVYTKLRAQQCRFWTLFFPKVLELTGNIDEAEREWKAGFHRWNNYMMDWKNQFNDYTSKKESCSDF
Can you tell me IC50 for the items I'm about to list?

IC50 for "N=C(N)N(CCCCN1CCN(CCCCCCCOc2ccc(Cl)cc2)CC1)Cc1ccccc1" is 1.9 µM

// IC50 lookup, compound = "N=C(NCCCCN1CCCCC1)NCCCc1ccc(Cl)cc1" , result: 5.9 µM

The compound "N=C(N)N(CCCCN1CCN(CCCCCCCOc2ccc(Cl)cc2)CC1)Cc1ccc(C(F)(F)F)cc1" showed IC50 equal to 4.9 µM

GET /value?item= "Cl.Cl.N=C(NCCCCc1ccc(Cl)cc1)NCCCCN1CCCCC1" &field=IC50 returns 1.7 µM

Documented IC50 of "N=C(NCCCCc1ccc(Cl)cc1)NCCCN1CCCCC1" : 1.6 µM

// "N=C(N)N(CCCCN1CCN(CCCCCCCOc2ccccc2)CC1)Cc1ccccc1" : IC50 value = 5.1 µM

The reported value for "N=C(N)N(CCCCc1ccc(Cl)cc1)CCCN1CCCCC1" in terms of IC50 is 3.5 µM

The reported IC50 of the compound "N=C(N)N(CCCc1ccc(Cl)cc1)CCCN1CCCCC1" was 8.4 µM

For "N=C(N)N(CCCCN1CCN(CCCOCCCc2ccc(Cl)cc2)CC1)Cc1ccccc1" the compound record lists IC50 as 2 µM

// recorded IC50 for "N=C(N)N(CCCCN1CCCCC1)CCCc1ccc(Cl)cc1" : 2.4 µM

Note to self: IC50 recorded for "N=C(N)N(CCCCN1CCN(CCCOCCCc2ccc(Cl)cc2)CC1)Cc1ccc(C(F)(F)F)cc1" was 4.8 µM

* * *

measure_name: pIC50
Hey, just a heads up that pIC50 is the negative log base 10 of the concentration in molar.

Measured pIC50 for this entry "N=C(N)N(CCCc1ccc(Cl)cc1)CCCN1CCCCC1" on eeAChE (Electrophorus electricus, UniProt O42275): 4.96

* * *

Target: hH3R (Homo sapiens, UniProt Q9Y5N1)
Construct: expressed in transfected cells
Sequence (Q9Y5N1 whole entry): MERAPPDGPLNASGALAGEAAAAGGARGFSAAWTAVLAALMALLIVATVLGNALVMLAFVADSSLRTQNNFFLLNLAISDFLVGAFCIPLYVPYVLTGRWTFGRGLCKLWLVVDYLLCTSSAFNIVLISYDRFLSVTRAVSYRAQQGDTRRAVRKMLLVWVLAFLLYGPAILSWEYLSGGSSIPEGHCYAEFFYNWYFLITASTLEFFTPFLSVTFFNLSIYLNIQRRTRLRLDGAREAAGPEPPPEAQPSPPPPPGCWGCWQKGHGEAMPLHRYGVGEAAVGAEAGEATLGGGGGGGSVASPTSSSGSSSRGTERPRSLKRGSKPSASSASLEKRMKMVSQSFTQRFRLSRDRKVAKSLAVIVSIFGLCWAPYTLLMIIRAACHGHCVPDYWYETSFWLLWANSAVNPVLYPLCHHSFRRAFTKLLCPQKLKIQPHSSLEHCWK
Assay: biochemical
Assay type: binding
Conditions: hH3R -log(Ki) ± sem, mean ± sem, at least three independent experiments
Hi! Just check whether Ki is below 500 nM. Below gives Fulfilled, equal or above gives Not fulfilled.

In the record for "N=C(N)N(CCCCN1CCN(CCCCCCCOc2ccc(Cl)cc2)CC1)Cc1ccccc1" , is Ki less than 500 nM?
Fulfilled

Find out if reported Ki for "N=C(NCCCCN1CCCCC1)NCCCc1ccc(Cl)cc1" is less than 500 nM
Fulfilled

Dear reviewer, please state whether "N=C(N)N(CCCCN1CCN(CCCCCCCOc2ccc(Cl)cc2)CC1)Cc1ccc(C(F)(F)F)cc1" has Ki strictly beneath 500 nM.
Fulfilled

Hello, is Ki of the following molecule strictly smaller than 500 nM? "N=C(NCCCc1ccc(Cl)cc1)NCCCN1CCCCC1"
Not fulfilled

is_below(Ki, 500 nM) for "N=C(N)N(CCCCN1CCN(CCCOCCCc2ccccc2)CC1)Cc1ccc(C(F)(F)F)cc1" ?
Not fulfilled

A record lists "N=C(N)N(CCCCN1CCN(CCCOCCCc2ccc(Cl)cc2)CC1)Cc1ccc(C(F)(F)F)cc1" . Is its Ki below 500 nM?
Not fulfilled

Lab log: compare recorded Ki with 500 nM; is it strictly lower for "N=C(N)N(CCCc1ccc(Cl)cc1)CCCN1CCCCC1" ?
Not fulfilled

Answer whether the molecule "N=C(N)N(CCCCc1ccc(Cl)cc1)CCCN1CCCCC1" has Ki strictly less than 500 nM
Not fulfilled

Lab note: Ki threshold 500 nM. Does this molecule come in strictly under it? "N=C(NCCCCc1ccc(Cl)cc1)NCCCN1CCCCC1"
Fulfilled

Dear colleague, could you confirm whether Ki of "N=C(N)N(CCCCN1CCCCC1)CCCc1ccc(Cl)cc1" falls below 500 nM? Thanks.
Not fulfilled

* * *

Target: hH3R (Homo sapiens, UniProt Q9Y5N1)
Construct: expressed in transfected cells
Assay: biochemical
Format: binding
Conditions: mean ± sem, at least three independent experiments; read-out: hH3R -log(Ki) ± sem (converted)
Protocol: All newly synthesized compounds were evaluated as H3R antagonists/inverse agonists on the guinea pig ileum (gpH3R), stimulated electrically to induce contractions. […] Ex vivo assay for histamine H3R and H1R antagonists were measured on the isolated guinea pig ileum stimulated to contractions by histamine. The pA2-values were calculated according to Arunlakshana and Schild. […] The Ki values were calculated from the IC50 values using the Cheng–Prusoff equation [37]. […]
measure_name: Ki (nM)
Reply numerically in nM, unit not repeated.

Lookup result for "N=C(N)N(CCCCN1CCN(CCCCCCCOc2ccccc2)CC1)Cc1ccc(C(F)(F)F)cc1" ; measured Ki: 437

The measured Ki associated with "N=C(N)N(CCCCN1CCN(CCCOCCCc2ccc(Cl)cc2)CC1)Cc1ccccc1" reads 324

response.value for "N=C(N)N(CCCCN1CCN(CCCCCCCOc2ccccc2)CC1)Cc1ccccc1" (field: Ki) = 513

Ki for "N=C(N)N(CCCCN1CCN(CCCOCCCc2ccccc2)CC1)Cc1ccccc1" is 2510
